Attribute: koff
Biological target: T1, GST-human NOGO-A56 (human, UniProt Q9NQC3 586-785)
T1 construct: also called hNOGO; recombinant human NOGO; not shown: Glutathione S-transferase (GST) tag encoded by vector pGEX-6P1, N-terminal to the NOGO-A fragment; the tag and linker se
T1 sequence: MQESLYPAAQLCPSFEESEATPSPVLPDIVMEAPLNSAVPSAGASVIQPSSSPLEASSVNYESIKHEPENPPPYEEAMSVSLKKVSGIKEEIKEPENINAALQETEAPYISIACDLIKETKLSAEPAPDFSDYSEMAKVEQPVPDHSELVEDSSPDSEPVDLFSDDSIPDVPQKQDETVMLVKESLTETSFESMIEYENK
Assay: SPR (Biacore 3000), GST-human NOGO-A56 amine-coupled to CM5 chip, antibody as analyte; mean (SD) of four experiments
Report the figure in s⁻¹ without appending any unit label.

Item HcLc (chimera of 2A10: murine 2A10 VH and VL with human IgG constant regions) (antibody, V domains shown, also called 2A10 chimeric antibody; the chimera) VH: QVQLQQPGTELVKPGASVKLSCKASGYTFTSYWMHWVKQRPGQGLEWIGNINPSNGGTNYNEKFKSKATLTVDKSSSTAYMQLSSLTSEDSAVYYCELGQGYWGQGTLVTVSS VL: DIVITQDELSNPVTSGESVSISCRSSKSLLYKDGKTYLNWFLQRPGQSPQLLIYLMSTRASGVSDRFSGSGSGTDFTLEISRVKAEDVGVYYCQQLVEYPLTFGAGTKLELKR has what recorded koff? 0.00378

Item H1L11 (antibody, human IgG1, kappa, V domains shown, human gamma-1 mutated constant region, human kappa) VH: QVQLVQSGAEVKKPGASVKVSCKASGYTFTSYWMHWVRQAPGQGLEWMGNINPSNGGTNYNEKFKSRVTMTRDTSTSTVYMELSSLRSEDTAVYYCELGQGYWGQGTLVTVSS VL: DIVITQSPLSLPVTLGQPASISCRSSKSLLYKDGKTYLNWFQQRPGQSPQLLIYLMSTRASGVPDRFSGGGSGTDFTLKISRVEAEDVGVYYCQQLVEYPLTFGQGTKLEIKR has what recorded koff? 0.0314

Item H16L18 (antibody, human IgG1, kappa, V domains shown, Humanised 2A10; human gamma-1 mutated constant region, human kappa; also called H16L18 FL) VH: QVQLVQSGAEVKKPGASVKVSCKASGYTFTSYWMHWVKQRPGQGLEWIGNINPSNGGTNYNEKFKSKATLTVDKSTSTAYMELSSLRSEDTAVYYCELGQGYWGQGTLVTVSS VL: DIVMTQDPLSNPVTLGQPVSISCRSSKSLLYKDGKTYLNWFLQRPGQSPQLLIYLMSTRASGVSDRFSGSGSGTDFTLKISRVEAEDVGVYYCQQLVEYPLTFGQGTKLEIKR has what recorded koff? 0.00552

Item H6L13 (antibody, human IgG1, kappa, V domains shown, Humanised 2A10; human gamma-1 mutated constant region, human kappa; also called H6L13 FL) VH: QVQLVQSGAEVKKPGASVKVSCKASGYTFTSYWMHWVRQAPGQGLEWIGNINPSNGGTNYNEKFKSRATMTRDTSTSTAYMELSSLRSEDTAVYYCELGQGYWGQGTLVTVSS VL: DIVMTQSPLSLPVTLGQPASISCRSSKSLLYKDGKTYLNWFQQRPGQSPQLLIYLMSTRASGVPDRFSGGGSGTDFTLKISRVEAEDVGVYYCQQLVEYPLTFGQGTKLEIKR has what recorded koff? 0.0137

Item H18L16 (antibody, human IgG1, kappa, V domains shown, Humanised 2A10; human gamma-1 mutated constant region, human kappa; also called H18L16 FL) VH: QVQLVQSGAEVVKPGASVKLSCKASGYTFTSYWMHWVKQRPGQGLEWIGNINPSNGGTNYNEKFKSKATLTVDKSSSTAYMELSSLRSEDSAVYYCELGQGYWGQGTLVTVSS VL: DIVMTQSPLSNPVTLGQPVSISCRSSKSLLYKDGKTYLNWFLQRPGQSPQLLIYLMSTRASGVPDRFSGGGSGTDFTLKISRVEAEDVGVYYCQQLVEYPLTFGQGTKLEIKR has what recorded koff? 0.00586
